Molecular target: Ubiquitin-conjugating enzyme E2 N (Homo sapiens) (UniProt P61088)
Sequence (P61088 whole entry, looked up): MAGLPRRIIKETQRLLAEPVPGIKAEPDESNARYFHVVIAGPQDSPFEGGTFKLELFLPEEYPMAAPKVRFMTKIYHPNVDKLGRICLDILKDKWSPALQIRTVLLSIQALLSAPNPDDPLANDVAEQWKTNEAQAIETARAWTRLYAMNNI
Assay: UBE2N binders by NMR, biophysical, purified protein (AID 1552)
Settings: NMR binding to purified UBE2N
Calls of active or inactive are those of the source. No rule for the calls is given here.
measure: Kd

>>> df
                                   compound            reading
0   Cc1c(C(=O)N2CCOCC2)oc2c1C(=O)CC(C)(C)C2  > 4 mM (inactive)
1                        CC(=O)c1cc(C)ccc1O  > 4 mM (inactive)
2  CC(=O)c1ccc(CC2SC(N)=NC2=O)cc1 (configuration not stated)  > 4 mM (inactive)
3       Cc1ccc2c(c1)CC[C@H]1CC(=O)CC[C@]21C  > 4 mM (inactive)
4              Cc1sc2nc(NCCO)[nH]c(=O)c2c1C  > 4 mM (inactive)
5                            CN1CC(=O)N=C1N  > 4 mM (inactive)
6  CC1=C2[C@H]3OC(=O)[C@@H](C)[C@@H]3CC[C@@]2(C)C=CC1=O  > 4 mM (inactive)
